measurement-target: human FXa (Homo sapiens, UniProt P00742)
Construct: purchased Enzyme Research Laboratories
Sequence (P00742 235-488 limits assumed): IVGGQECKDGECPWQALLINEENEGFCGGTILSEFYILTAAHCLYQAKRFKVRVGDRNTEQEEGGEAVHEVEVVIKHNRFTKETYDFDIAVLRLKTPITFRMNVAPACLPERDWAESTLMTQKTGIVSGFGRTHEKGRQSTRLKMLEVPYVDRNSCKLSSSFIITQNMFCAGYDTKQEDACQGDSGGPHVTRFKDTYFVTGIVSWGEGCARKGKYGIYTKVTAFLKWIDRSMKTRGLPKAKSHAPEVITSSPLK
Sequence (P00742 41-179 partner limits assumed): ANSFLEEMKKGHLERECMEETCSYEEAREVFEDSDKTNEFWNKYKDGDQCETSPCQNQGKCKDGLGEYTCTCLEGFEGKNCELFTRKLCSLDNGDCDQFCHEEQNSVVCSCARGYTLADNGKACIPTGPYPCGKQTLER
test-description: Inhibitory activity against purified human FXa, chromogenic substrate S-2765
Assay type: biochemical
Description: Human FXa was purchased from Enzyme Research Laboratories. 96-well microplate was purchased from Corning Life Sciences. Inhibitory activity of the oxazolidinone derivatives with cyclic amidoxime or cyclic amidrazone group represented by formula I of the present invention against FXa was measured as follow. The reaction was initiated by the addition of the substrate, and the absorbance was monitored continuously at 405 nm for 5 min using SpectraMax 190 (Molecular Devices, USA). […]
measure: Ki (nM)
Numbers only, in nM.

{"smiles-structure": "O=C(NC[C@H]1CN(c2ccc(C3=NCCN4C(=O)CCN34)cc2)C(=O)O1)c1ccc(Cl)s1", "Ki / nM": 15.8}
{"smiles-structure": "CN1CCON=C1c1ccc(N2C[C@H](CNC(=O)c3ccc(Cl)s3)OC2=O)cc1", "Ki / nM": 7.11}

From here, focus on the item given below.
[ask] Please give the measured Ki for this compound: "O=C(NC[C@H]1CN(c2ccc(C3=NOCCN3)cc2)C(=O)O1)c1ccc(Cl)s1"
[reply] 110
